Taken from PubChem BioAssay AID1963420.

system: 494315-158-R-J1-PDC complex spheroid growth, percent test/control; assay: Anticancer human tumor 494315-158-R-J1-PDC patient-derived soft tissue sarcoma cell line growth inhibition [Asc]; conditions: second compound 0.316 µM; first compound 10 µM; stronger effect = lower value
Label Fulfilled when viability, T/C < 50%; otherwise Not fulfilled.

compound | testedSystem | assignedLabel
C=C(F)C(=O)N1CCN(c2nc(OCC3CCCN3C)nc3c2CCN(c2cccc4cccc(Cl)c24)C3)CC1CC#N (stereo not given) + CNC(C)C(=O)NC1CN(S(=O)(=O)c2cccc(S(=O)(=O)N3CCC4CCC(C(=O)NC(c5ccccc5)c5ccccc5)N4C(=O)C(NC(=O)C(C)NC)C3)c2)CCC2CCC(C(=O)NC(c3ccccc3)c3ccccc3)N2C1=O | 494315-158-R-J1-PDC complex spheroid growth, percent test/control | Fulfilled
C=C(F)C(=O)N1CCN(c2nc(OCC3CCCN3C)nc3c2CCN(c2cccc4cccc(Cl)c24)C3)CC1CC#N (stereo not given) + Cc1c(S(C)(=O)=O)c(-c2cc(F)cc(N3CCN(c4ccc(NS(=O)(=O)c5ccc(NC(CCN6CCC(C(=O)OCCCP(=O)(O)O)CC6)CSc6ccccc6)c(S(=O)(=O)C(F)(F)F)c5)cc4)CC3)c2)c(-c2ccc(Cl)cc2)n1C(C)C | 494315-158-R-J1-PDC complex spheroid growth, percent test/control | Fulfilled
C=CC(=O)N1CCN(c2nc(=O)n(-c3c(C)ccnc3C(C)C)c3nc(-c4c(O)cccc4F)c(F)cc23)C(C)C1 (stereo not given) + Cc1c(S(C)(=O)=O)c(-c2cc(F)cc(N3CCN(c4ccc(NS(=O)(=O)c5ccc(NC(CCN6CCC(C(=O)OCCCP(=O)(O)O)CC6)CSc6ccccc6)c(S(=O)(=O)C(F)(F)F)c5)cc4)CC3)c2)c(-c2ccc(Cl)cc2)n1C(C)C | 494315-158-R-J1-PDC complex spheroid growth, percent test/control | Not fulfilled
O=C(c1cc(Cc2n[nH]c(=O)c3ccccc23)ccc1F)N1CCN(C(=O)C2CC2)CC1 + Cc1c(S(C)(=O)=O)c(-c2cc(F)cc(N3CCN(c4ccc(NS(=O)(=O)c5ccc(NC(CCN6CCC(C(=O)OCCCP(=O)(O)O)CC6)CSc6ccccc6)c(S(=O)(=O)C(F)(F)F)c5)cc4)CC3)c2)c(-c2ccc(Cl)cc2)n1C(C)C | 494315-158-R-J1-PDC complex spheroid growth, percent test/control | Fulfilled

---

Each item that follows carries a reported pIC50.
tested on: 494315-158-R-J1-PDC complex spheroid growth, percent test/control; assay: Anticancer human tumor 494315-158-R-J1-PDC cell line growth inhibition [Asc]; conditions: curve of first compound; second compound 0.03 µM;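 note: compound exposure lasted seven days after spheroids formed for three days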
pIC50: −log10 of the molar value.
measure: pIC50

compound | prefixOperator | measurement
COc1c(OCCCN2CCOCC2)ccc2c3n(c(=NC(=O)c4cnc(N)nc4)nc12)CCN3 + CCN1C(C(=O)NC23CCC(C(=O)O)(CC2)CC3)C(c2cccc(Cl)c2F)C2(C(=O)Nc3cc(Cl)ccc32)C12CCCCC2 | = | 7.34
Cc1nc(N2CCC3(CC2)COC(C)C3N)c(CO)nc1Sc1ccnc(N)c1Cl (centres undefined) + CCN1C(C(=O)NC23CCC(C(=O)O)(CC2)CC3)C(c2cccc(Cl)c2F)C2(C(=O)Nc3cc(Cl)ccc32)C12CCCCC2 | < | 5.52
CCN1CCN(Cc2ccc(Nc3ncc(F)c(-c4cc(F)c5nc(C)n(C(C)C)c5c4)n3)nc2)CC1 + CCN1C(C(=O)NC23CCC(C(=O)O)(CC2)CC3)C(c2cccc(Cl)c2F)C2(C(=O)Nc3cc(Cl)ccc32)C12CCCCC2 | < | 6.00
CNC(C)C(=O)NC1CN(S(=O)(=O)c2cccc(S(=O)(=O)N3CCC4CCC(C(=O)NC(c5ccccc5)c5ccccc5)N4C(=O)C(NC(=O)C(C)NC)C3)c2)CCC2CCC(C(=O)NC(c3ccccc3)c3ccccc3)N2C1=O (centres undefined) + CCN1C(C(=O)NC23CCC(C(=O)O)(CC2)CC3)C(c2cccc(Cl)c2F)C2(C(=O)Nc3cc(Cl)ccc32)C12CCCCC2 | = | 7.37
